# Tested on: Botulinum neurotoxin type F light chain protease (Clostridium botulinum)
# EXPERIMENT NOTES: Botulinum neurotoxin type F light chain protease inhibition, multiplex microsphere flow cytometry, validation set (AID 588459)
# TEST CONDITIONS: multiplex microsphere protease substrate cleavage assay, at 10 µM, stronger effect = higher value
ENDPOINT LABEL: inhibition (%)
A number alone suffices; assume %.

- CCCC(CCC)C(=O)OC1C[C@H]2CC[C@@H](C1)[N+]2(C)C (some centres not stated): -1.1
- CC1(C)Cc2ccccc2-c2nc(-c3ccccc3)oc(=O)c21: -1.9
- Cc1c(O)c(=O)ccn1C: 3.3
- CC(=O)C1=C(O)C(=O)OC1c1ccc(C)cc1 (configuration not stated): 9.7

Next compound, inhibition to be filled in.
Task item: Report the value of inhibition obtained on Botulinum neurotoxin type F light chain protease (Clostridium botulinum) for "Cc1cc(=O)c2c(O)c(O)ccc2o1" .
Reply: 1.8
